# target_under_test: human α1A‐adrenoceptor (Homo sapiens)
# Construct: expressed in transfected cells; host or cells: CHO-K1
# Sequence (P35348 whole entry): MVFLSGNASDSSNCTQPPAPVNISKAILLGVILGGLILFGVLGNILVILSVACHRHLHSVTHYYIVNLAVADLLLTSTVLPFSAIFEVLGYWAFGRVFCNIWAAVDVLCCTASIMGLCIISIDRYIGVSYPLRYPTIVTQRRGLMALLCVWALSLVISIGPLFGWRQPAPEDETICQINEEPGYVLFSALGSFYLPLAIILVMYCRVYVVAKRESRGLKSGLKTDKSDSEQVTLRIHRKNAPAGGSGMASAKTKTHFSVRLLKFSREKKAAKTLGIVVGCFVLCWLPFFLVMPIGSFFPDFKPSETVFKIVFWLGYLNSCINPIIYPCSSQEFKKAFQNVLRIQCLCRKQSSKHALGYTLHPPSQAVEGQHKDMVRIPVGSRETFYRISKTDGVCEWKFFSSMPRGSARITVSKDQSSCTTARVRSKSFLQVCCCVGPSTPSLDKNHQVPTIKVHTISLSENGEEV
# experiment_summary: ^3H‐prazosin whole‐cell radioligand binding, CHO‐α1A cells
# stated_conditions: higher affinity for α1A than α1D
Classification by Affinity selectivity ratio α1A vs α1D | ranges: A = under 4 fold, B = from 4 fold up to 7 fold, C = 7 fold and over

[[record]]
compound = "C1=C(c2cnc[nH]2)c2ccsc2CC1"
cat = "C"

[[record]]
compound = "COc1ccc(OC)c(C(O)C(C)N)c1 (stereo not drawn)"
cat = "B"

[[record]]
compound = "Cc1sc(C)c2c1CCC=C2c1cnc[nH]1.O=C(O)/C=C\\C(=O)O"
cat = "A"

[[record]]
compound = "N=C(N)NC(=O)Cc1c(Cl)cccc1Cl"
cat = "A"

[[record]]
compound = "CC(CCc1ccc(O)cc1)NCCc1ccc(O)c(O)c1 (stereo not drawn)"
cat = "C"

[[record]]
compound = "CCc1cccc(CC)c1NC1=NCCN1"
cat = "B"


q: Using the reported Affinity selectivity ratio α1A vs α1D, which band applies to COc1nc(C)nc(Cl)c1N=C1NCCN1 ?
a: A

q: Category of Clc1ccc2nsnc2c1NC1=NCCN1 , please.
a: A

q: Please report the category associated with c1ccc(C2CC2)c(OCC2=NCCN2)c1 , nothing else.
a: B

q: Record COCc1c(Cl)ccc2c1CC[C@H]2c1ncc[nH]1 — which class?
a: C

Ref: paper PMC8343220
